# TARGET_DESC: UniProt:Q15125
# Sequence (Q15125 whole entry): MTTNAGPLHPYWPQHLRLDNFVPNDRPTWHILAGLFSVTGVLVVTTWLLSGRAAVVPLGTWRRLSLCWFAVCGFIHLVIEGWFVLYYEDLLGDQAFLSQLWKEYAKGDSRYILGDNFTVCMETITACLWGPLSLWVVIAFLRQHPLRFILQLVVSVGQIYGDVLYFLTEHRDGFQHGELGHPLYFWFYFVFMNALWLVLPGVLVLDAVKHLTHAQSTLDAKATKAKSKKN
# TEST_DESCRIPTION: hEBP-DHCR7 radioligand filtration binding assay with [3H]-Compound 118A*
# EXPERIMENTAL_PARAMETERS: radioligand [3H]-Compound 118A*; HEK293 membrane co-expressing hEBP and DHCR7
# note: exactly 10 nM is not below, so it is -1; use 1 for Ki strictly under it

In [3]: df
Out[3]:
                                   compound  discrete_label
0  O=S1(=O)CC2(CCN(CC(F)Cc3ccc(C(F)(F)F)cc3)C2)C1 (racemic)              -1
1  C[C@@H](Cc1ccc(OC(F)(F)F)cc1)CN1CCC2(C1)CS(=O)(=O)C2 (single isomer, unassigned) [119A*]               1
2  C[C@H](Cc1ccc([C@H]2CC[C@](O)(C(F)(F)F)CC2)c(Cl)c1)CN1CCC2(C1)CS(=O)(=O)C2 (stereo in doubt) [116B*]               1
3  CCC(C)(C)c1ccc(CC(C)CN2CCC3(CC2)CS(=O)(=O)C3)cc1 (racemic)               1
4  CC(C)(CN1CCC2(CC1)CS(=O)(=O)C2)Oc1cccc(C(F)(F)F)c1              -1
5  C[C@@H](Cc1ccc(C(F)(F)F)cc1)CN1CC2(CCS(=O)(=O)CC2)C1 (single isomer, unassigned) [232B*]              -1
6  O=S1(=O)CC2(CCN(CCOc3cnc([C@H]4CC[C@H](C(F)(F)F)CC4)c(Cl)c3)CC2)C1              -1
7  CC(C)(Cc1ccc(C(F)(F)F)nc1)CN1CCC2(C1)CS(=O)(=O)C2              -1

====

pKi: −log10 of the molar value.
Dear all, this message contains pKi results, target or system UniProt:Q15125.
PARAMETER: pKi

                                   molecule     target_desc  recorded_number
0  CC(Cc1ccc(F)c(F)c1)CN1CCC2(CC1)CS(=O)(=O)C2 (single isomer, unassigned) [212B*]  UniProt:Q15125             8.00
1  CC(Cc1ccc(C2CC2)cc1)CN1CCC2(C1)CS(=O)(=O)C2 (racemic)  UniProt:Q15125             8.01
2  C[C@@H](Cc1ccc(C(F)(F)F)cc1)CN1CCC2(CC1)CS(=O)(=O)C2 (single isomer, unassigned) [216A*]  UniProt:Q15125             8.00
